system: c-Src; test: phosphorylation enrichment, bacterial display (enrichment ratio); higher = better substrate or ligand; peptides without Tyr show the background;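 also: 11-residue human phosphosite peptides and single-mutation variants displayed on the E. coli surface, counted by deep sequencing, each peptide's frequency after selection divided by its frequency in the unselected input library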;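 also: frequency after pTyr selection over input frequency; kinase dosed for 20-30% of maximal phosphorylation in three min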
For each of the sequences below, state its phosphorylation enrichment.
Answers are plain numbers.

Consider the worked cases shown below.
I have this sequence here, IALSKYGRVKR [FGF6_Y186] , and I need its recorded phosphorylation enrichment.
0.463

Lookup SKHRLYSDLQT [PTCHD1_Y84]
0.371

Lookup FETDFYRKGGK [INSR_Y1190_YF]
0.482

Lookup SVTCTYSPAPN [TP53_Y126_L130P]
0.509

For every record below, what is its phosphorylation enrichment?
1. GIVEDYRPRFF [ACVRL1_Y421_P424R_YF]
2. GIVEDYRPTFY [ACVRL1_Y421_P424T]

0.459
0.347
